Listing of entries alongside the reported yeast fitness.
B1: tRNA (parent)
chain: GUUCCGUUGGCGUAAUGGUAACGCGUCUCCCUCCUAAGGAGAAGACUGCGGGUUCGAGUCCCGUACGGAACG

Variants of: B1
METHOD_SUMMARY: yeast fitness relative to wild type (ratio to wild type); higher = fitter; tRNA-Arg(CCU), competitive growth, 37 C, YPD
Fewer inactive variants are shown than the library holds.
TEST_READOUT: yeast fitness

U28A C49G A57G
≤ 0.5
C5U C11G C22G C46G
≤ 0.5
G12A G17C C46U
≤ 0.5
C31U C34U G50A G52A A57G G67C
≤ 0.5
A21U C46U C55A G56C
≤ 0.5
U8A A43G A45C C49G
0.58
G12C C34U G44A G51C
≤ 0.5
A21C C29A G52C G68A
0.664
A36C G38C G50C G51A G63C
0.642
A15C C27A U32G
0.709
G6A A57U
0.629
U8A G12A C22A C31G A65C
≤ 0.5
C60U U64C
0.833
C5G G9C A42G
≤ 0.5
A20U U47A U53C
0.532
C31A C46U G67U
0.684
U26G A45G C46U U53G
0.599
U13C C62G
0.804
C22U G68C
0.717
G9C C29G C34G
≤ 0.5
C22U C27U U32A C66U G67C
≤ 0.5
G17A G25C A65C
0.611
C4A A42U G68C
≤ 0.5
U47A U53A
0.557
U3C A20U A70C
0.59
C4G G17A C61U
0.56
C5A A14G A20U A37C C49A
≤ 0.5
A69G
0.982
A15G U28C A37C A70U
≤ 0.5
U3C G18C C31G C34G
≤ 0.5
G18A C31G U47C
≤ 0.5
A37G G41A G50A
≤ 0.5
C4G A43U A70U
0.623
G17C C22U C30U A37U
≤ 0.5
A15G G52A G67U
≤ 0.5
C5G U13A C22G C29G A40U U54C
≤ 0.5
U32C G38C G50A A70G
≤ 0.5
C5U C46G
0.93
A20U A21C C27A G41A
≤ 0.5
C24U U26A U28G G52A
≤ 0.5
G25A C31U A43C A57C
≤ 0.5
U13C G44C G58A G68A
0.572
C5U A15U G17A C46G G63C C66A
≤ 0.5
